target: HAQ STING (THP-1 cells) (Homo sapiens, UniProt Q86WV6, G230A/R293Q/R71H); construct: THP1 cells constitutively express the HAQ variant of human STING; assay: THP1 cellular assay (EC50); conditions: THP-1 cells (HAQ STING)
Sequence (Q86WV6 whole entry R71H/G230A/R293Q): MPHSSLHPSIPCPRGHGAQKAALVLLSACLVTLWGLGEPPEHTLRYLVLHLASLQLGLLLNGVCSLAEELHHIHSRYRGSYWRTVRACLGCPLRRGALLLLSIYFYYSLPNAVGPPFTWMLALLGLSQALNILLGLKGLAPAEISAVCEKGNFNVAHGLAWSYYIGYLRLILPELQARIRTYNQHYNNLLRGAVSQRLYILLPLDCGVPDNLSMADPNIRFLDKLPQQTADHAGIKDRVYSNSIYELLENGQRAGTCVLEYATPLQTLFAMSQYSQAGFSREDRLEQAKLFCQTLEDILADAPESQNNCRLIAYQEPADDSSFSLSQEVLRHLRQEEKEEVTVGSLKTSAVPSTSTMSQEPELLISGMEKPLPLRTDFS
Recorded measurements of EC50, one per entry

Before answering, review these 3 worked examples.
Enquiry: // query EC50 value for entry O=C(NCc1c(F)cc(F)cc1F)c1ccc2c(c1)N(Cc1c(F)cc(O)cc1F)C(=O)CS2 [Compound 7]
Return: 1.38 µM

Enquiry: Reported EC50 for CC1Sc2ncc(C(=O)NCc3cc4ccccc4o3)cc2N(Cc2cc(F)cc(F)c2)C1=O (stereo not shown) [Compound 12] : what is it?
Return: ~8 µM

Enquiry: Tell me the measured EC50 of CC1Sc2ccc(C(=O)NCc3c(F)cc(F)cc3F)cc2N(Cc2cc(F)cc(F)c2)C1=O (stereo not shown) [Compound 10] , please.
Return: ~6 µM

***
Enquiry: Can you look up the measured EC50 of O=C(NCc1c(F)cc(F)cc1F)c1ccc2c(c1)N(Cc1c(F)cccc1Cl)C(=O)CS2 [Compound 5] for me?
Return: > 10 µM

###

target: R232 variant of human STING (Homo sapiens, UniProt Q86WV6, H232R); construct: the ER fraction from R232.STING transfected HEK293T cells which contained full length STING; test: Luciferase (ISRE.ISG reporter) assay in HEK293T cells stably expressing R232 hSTING; type: cell-based; settings: HEK293T cells expressing R232 hSTING, luciferase reporter; read-out: HEK.R232 EC50
Sequence (Q86WV6 whole entry H232R): as the sequence (Q86WV6 whole entry R71H/G230A/R293Q) above, with H71R, A230G, H232R, Q293R counted along it
readout.label: EC50 (nM)

1: O=C(NCc1ccco1)c1ccc2c(c1)N(Cc1c(Cl)cccc1Cl)C(=O)CS2 [Compound 1]
2: COc1cc(F)c(CN2C(=O)CSc3ccc(C(=O)NCc4c(F)cc(F)cc4F)cc32)c(F)c1 [Compound 6]
3: O=C(NCc1c(F)cc(F)cc1F)c1ccc2c(c1)N(Cc1c(F)cc(O)cc1F)C(=O)CS2 [Compound 7]
4: O=C(NCc1ccco1)c1ccc2c(c1)N(Cc1c(F)cccc1F)C(=O)CS2 [Compound 2]
Enquiry: Hello, I need these entries ordered by EC50, highest reading first. Thanks! State the ranking by listing the labels in the requested order.
Return: 4, 1, 2, 3
(4: 3970 nM, 1: 2160 nM, 2: 160 nM, 3: 71.6 nM)

###

biological target: R232 variant of human STING (Homo sapiens, UniProt Q86WV6, H232R); construct: the ER fraction from R232.STING transfected HEK293T cells which contained full length STING; assay: Luciferase (ISRE.ISG reporter) assay in HEK293T cells stably expressing R232 hSTING; type: cell-based; conditions: HEK293T cells expressing R232 hSTING, luciferase reporter; read-out: HEK.R232 EC50
readout.label: EC50 (nM)

Worked examples follow.
Enquiry: # EC50 lookup, item CC1Sc2ncc(C(=O)NCc3cc4ccccc4o3)cc2N(Cc2cc(F)cc(F)c2)C1=O (stereo not shown)
Return: 91

Enquiry: Tell me the measured EC50 of CC1Sc2ccc(C(=O)NCc3c(F)cc(F)cc3F)cc2N(Cc2cc(F)cc(F)c2)C1=O (stereo not shown) , please.
Return: 421

I: CC1Sc2ccc(C(=O)NCc3c(F)cc(F)cc3F)cc2N(Cc2c(F)ccc(O)c2Cl)C1=O (stereo not shown)
II: O=C(NCc1ccco1)c1ccc2c(c1)N(Cc1ccccc1)C(=O)CS2
Enquiry: Determine, for I and II , which has the greater value of EC50. Please reply using the label of the selected record.
Return: II

###

target: HAQ STING (THP-1 cells) (Homo sapiens, UniProt Q86WV6, G230A/R293Q/R71H); construct: THP1 cells constitutively express the HAQ variant of human STING; host or cells: THP-1; test: THP1 cellular assay (EC50); assay type: cell-based; details: THP1 cellular assay
readout.label: activation of THP1 cells, in words

Enquiry: What value of activation of THP1 cells, in words has been recorded for this entry: CC1Sc2ccc(C(=O)NCc3c(F)cc(F)cc3F)cc2N(Cc2c(F)cccc2Cl)C1=O (centres unmarked)
Return: sub-micromolar activity

Enquiry: # get_value(readout='activation of THP1 cells, in words', item= CC1Sc2ccc(C(=O)NCc3c(F)cc(F)cc3F)cc2N(Cc2c(F)ccc(O)c2Cl)C1=O (centres unmarked) )
Return: sub-micromolar activity

Enquiry: Which activation of THP1 cells, in words value belongs to O=C(NCc1ccc(F)cc1F)c1ccc2c(c1)N(Cc1c(F)cccc1Cl)C(=O)CS2 ?
Return: very weak activation

Enquiry: Looking for the measured activation of THP1 cells, in words of O=C(NCc1c(F)cc(F)cc1F)c1ccc2c(c1)N(Cc1c(F)cccc1Cl)C(=O)CS2 , can you help?
Return: very weak activation

###

target: H232 variant of human STING (Homo sapiens, UniProt Q86WV6); assay: Luciferase (ISRE.ISG reporter) assay in HEK293T cells stably expressing H232 hSTING; settings: ISRE.ISG54 luciferase reporter, 18 hours, read-out: estimated EC50, H232 variant
readout.label: pEC50
To interpret pEC50, take it as minus log10 of a concentration measured in moles per litre.

Enquiry: Look up pEC50: O=C(NCc1ccco1)c1ccc2c(c1)N(Cc1c(F)cccc1Cl)C(=O)CS2 [Compound G10]
Return: 5.37

###

assay: Solubility under assay conditions; assay type: physicochemical; conditions: under our assay conditions; read-out: maximum solubility
readout.label: solubility (µM)
Report the value in µM with no unit label.

Enquiry: Consider the molecule O=C(NCc1ccco1)c1ccc2c(c1)N(Cc1c(F)cccc1Cl)C(=O)CS2 and give its measured solubility.
Return: 20

###

target: R232 variant of human STING (Homo sapiens, UniProt Q86WV6, H232R); construct: the ER fraction from R232.STING transfected HEK293T cells which contained full length STING; experiment: Luciferase (ISRE.ISG reporter) assay in HEK293T cells stably expressing R232 hSTING; format: cell-based; conditions: HEK.R232 cellular assay
readout.label: activity against R232 STING, in words

Enquiry: For CC1Sc2ccc(C(=O)NCc3c(F)cc(F)cc3F)cc2N(Cc2c(F)cccc2Cl)C1=O (stereo not shown) , what is its reported activity against R232 STING, in words?
Return: sub-micromolar activity

Enquiry: Please give the measured activity against R232 STING, in words for this molecule: CC1Sc2ccc(C(=O)NCc3c(F)cc(F)cc3F)cc2N(Cc2c(F)ccc(O)c2Cl)C1=O (stereo not shown)
Return: sub-micromolar activity

###

target: HAQ STING (THP-1 cells) (Homo sapiens, UniProt Q86WV6, G230A/R293Q/R71H); construct: THP1 cells constitutively express the HAQ variant of human STING; experiment: THP1 cellular assay (EC50); settings: THP-1 cells (HAQ STING)
pEC50: −log10 of the molar value.
readout.label: pEC50

A: CC1Sc2ccc(C(=O)NCc3c(F)cc(F)cc3F)cc2N(Cc2c(F)ccc(O)c2Cl)C1=O (stereo not shown)
B: CC1Sc2ccc(C(=O)NCc3c(F)cc(F)cc3F)cc2N(Cc2c(F)cccc2Cl)C1=O (stereo not shown)
Enquiry: Of the two listed items, A and B , which carries the larger pEC50 figure? # reply format: chosen label
Return: A
(A: 6.39, B: 6.03)

###

molecular target: R232 variant of human STING (Homo sapiens, UniProt Q86WV6, H232R); construct: the ER fraction from R232.STING transfected HEK293T cells which contained full length STING; assay: Luciferase (ISRE.ISG reporter) assay in HEK293T cells stably expressing R232 hSTING; assay type: cell-based; details: HEK293T cells expressing R232 hSTING, luciferase reporter; read-out: HEK.R232 EC50
pEC50: −log10 of the molar value.
readout.label: pEC50

A: CC1Sc2ccc(C(=O)NCc3c(F)cc(F)cc3F)cc2N(Cc2c(F)cccc2Cl)C1=O (stereo not shown)
B: O=C(NCc1ccc(F)cc1F)c1ccc2c(c1)N(Cc1c(F)cccc1Cl)C(=O)CS2
Enquiry: For the pair A and B , which entry has the numerically smaller recorded pEC50? # answer = label of selected item
Return: B
(B: 6.53, A: 6.91)
